tested on: glycine receptors; test: ionic current induced by glycine in a single neuron of the tractus solitarius nucleus, whole cell patch clamp; assay type: cell-based, guinea pig; set-up: key: ±: no action; +: potentiated; −: inhibited; conditions: glycine 30 μM; test compound 1 mM
measure: Action (class symbol)

| compound | measure | reported-result |
| --- | --- | --- |
| C=CCN1CCC2CCCC1C2 (stereo not drawn) [Example 3, 2-Allyl-2-azabicyclo[3.3.1]nonane] | Action (class symbol) | + |
| CCCC12CCCC(CCN1)C2 (stereo not drawn) [Example 5, 1-Propyl-2-azabicyclo[3.3.1]nonane] | Action (class symbol) | + |
| CCN1CCC2CCCC1C2 (stereo not drawn) [Example 2, 2-Ethyl-2-azabicyclo[3.3.1]nonane] | Action (class symbol) | + |
| CN1CCC2CCCC1C2 (stereo not drawn) [Example 1, 2-Methyl-2-azabicyclo[3.3.1]nonane] | Action (class symbol) | ± |
| CCC12CCCC(CCN1)C2 (stereo not drawn) [Example 4, 1-Ethyl-2-azabicyclo[3.3.1]nonane] | Action (class symbol) | − |
| C1CC2CCN3CCCC3(C1)C2 (stereo not drawn) [Example 6, 5-Azatricyclo[6.3.1.0^1,5]dodecane] | Action (class symbol) | + |

Reference source: patent US6608080B1
